Entries and their measured total protein half-life in vivo follow.
EXPERIMENT_DESCRIPTION: total protein half-life in vivo (active degradation + dilution); higher = more stable protein
PROTOCOL_CONDITIONS: E. coli NCM3722 delta-lon; growth: N-lim chemostat; doubling time 6 h
Answer in h, number only, no unit symbol.

The examples below pair each entry with its known result.
SEQUENCE_CODE	total protein half-life in vivo [h]
MKICLIDETGTGDGALSVLAARWGLEHDEDNLMALVLTPEHLELRKRDEPKLGGIFVDFVGGAMAHRRKFGGGRGEAVAKAVGIKGDYLPDVVDATAGLGRDAFVLASVGCRVRMLERNPVVAALLDDGLARGYADAEIGGWLQERLQLIHASSLTALTDITPRPQVVYLDPMFPHKQKSALVKKEMRVFQSLVGPDLDADGLLEPARLLATKRVVVKRPDYAPPLANVATPNAVVTKGHRFDIYAGTPV	5.92
MSAGRLNKKSLGIVMLLSVGLLLAGCSGSKSSDTGTYSGSVYTVKRGDTLYRISRTTGTSVKELARLNGISPPYTIEVGQKLKLGGAKSSSITRKSTAKSTTKTASVTPSSAVPKSSWPPVGQRCWLWPTTGKVIMPYSTADGGNKGIDISAPRGTPIYAAGAGKVVYVGNQLRGYGNLIMIKHSEDYITAYAHNDTMLVNNGQSVKAGQKIATMGSTDAASVRLHFQIRYRATAIDPLRYLPPQGSKPKC	6.04
MYQVVASDLDGTLLSPDHTLSPYAKETLKLLTARGINFVFATGRHHVDVGQIRDNLEIKSYMITSNGARVHDLDGNLIFAHNLDRDIASDLFGVVNDNPDIITNVYRDDEWFMNRHRPEEMRFFKEAVFQYALYEPGLLEPEGVSKVFFTCDSHEQLLPLEQAINARWGDRVNVSFSTLTCLEVMAGGVSKGHALEAVAKKLGYSLKDCIAFGDGMNDAEMLSMAGKGCIMGSAHQRLKDLHPELEVIGTNADDAVPHYLRKLYLS	3.67
MIKKIFALPVIEQISPVLSRRKLDELDLIVVDHPQVKASFALQGAHLLSWKPAGEEEVLWLSNNTPFKNGVAIRGGVPVCWPWFGPAAQQGLPAHGFARNLPWTLKSHHEDADGVALTFELTQSEETKKFWPHDFTLLAHFRVGKTCEIDLESHGEFETTSALHTYFNVGDIAKVSVSGLGDRFIDKVNDAKENVLTDGIQTFPDRTDRVYLNPQDCSVINDEALNRIIAVGHQHHLNVVGWNPGPALSISMGDMPDDGYKTFVCVETAYASETQKVTKEKPAHLAQSIRVAKR	5.11
MTQFASPVLHSLLDTDAYKLHMQQAVFHHYYDVHVAAEFRCRGDDLLGIYADAIREQVQAMQHLRLQDDEYQWLSALPFFKADYLNWLREFRFNPEQVTVSNDNGKLDIRLSGPWREVILWEVPLLAVISEMVHRYRSPQADVAQALDTLESKLVDFSALTAGLDMSRFHLMDFGTRRRFSREVQETIVKRLQQESWFVGTSNYDLARRLSLTPMGTQAHEWFQAHQQISPDLANSQRAALAAWLEEYPDQLGIALTDCITMDAFLRDFGVEFASRYQGLRHDSGDPVEWGEKAIAHYEKLGIDPQSKTLVFSDNLDLRKAVELYRHFSSRVQLSFGIGTRLTCDIPQVKPLNIVIKLVECNGKPVAKLSDSPGKTICHDKAFVRALRKAFDLPHIKKAS	4.11

total protein half-life in vivo reading for MSLTRLLIRDFRNIETADLALSPGFNFLVGANGSGKTSVLEAIYTLGHGRAFRSLQIGRVIRHEQEAFVLHGRLQGEERETAIGLTKDKQGDSKVRIDGTDGHKVAELAHLMPMQLITPEGFTLLNGGPKYRRAFLDWGCFHNEPGFFTAWSNLKRLLKQRNAALRQVTRYEQLRPWDKELIPLAEQISTWRAEYSAGIAADMADTCKQFLPEFSLTFSFQRGWEKETEYAEVLERNFERDRQLTYTAHGPHKADLRIRADGAPVEDTLSRGQLKLLMCALRLAQGEFLTRESGRRCLYLIDDFASELDDERRGLLASRLKATQSQVFVSAISAEHVIDMSDENSKMFTVEKGKITD [P0A7H0] : 4.92

total protein half-life in vivo reading for MSHVELQPGFDFQQAGKEVLAIERECLAELDQYINQNFTLACEKMFWCKGKVVVMGMGKSGHIGRKMAATFASTGTPSFFVHPGEAAHGDLGMVTPQDVVIAISNSGESSEITALIPVLKRLHVPLICITGRPESSMARAADVHLCVKVAKEACPLGLAPTSSTTATLVMGDALAVALLKARGFTAEDFALSHPGGALGRKLLLRVNDIMHTGDEIPHVKKTASLRDALLEVTRKNLGMTVICDDNMMIEGIFTDGDLRRVFDMGVDVRQLSIADVMTPGGIRVRPGILAVEALNLMQSRHITSVMVADGDHLLGVLHMHDLLRAGVV : 4.95

* * *

EXPERIMENT_DESCRIPTION: total protein half-life in vivo (active degradation + dilution); higher = more stable protein
PROTOCOL_CONDITIONS: wild type E. coli NCM3722; growth: N-lim chemostat; doubling time 12 h
OUTCOME_MEASURE: total protein half-life in vivo (h)
Answer in h, number only, no unit symbol.

SEQUENCE_CODE	total protein half-life in vivo [h]
MKALSKLKAEEGIWMTDVPVPELGHNDLLIKIRKTAICGTDVHIYNWDEWSQKTIPVPMVVGHEYVGEVVGIGQEVKGFKIGDRVSGEGHITCGHCRNCRGGRTHLCRNTIGVGVNRPGCFAEYLVIPAFNAFKIPDNISDDLAAIFDPFGNAVHTALSFDLVGEDVLVSGAGPIGIMAAAVAKHVGARNVVITDVNEYRLELARKMGITRAVNVAKENLNDVMAELGMTEGFDVGLEMSGAPPAFRTMLDTMNHGGRIAMLGIPPSDMSIDWTKVIFKGLFIKGIYGREMFETWYKMAALIQSGLDLSPIITHRFSIDDFQKGFDAMRSGQSGKVILSWD	8.68

Attention now turns to another entry.
total protein half-life in vivo reading for MFQQQKDWETRENAFAAFTMGPLTDFWRQRDEAEFTGVDDIPVRFVRFRAQHHDRVVVICPGRIESYVKYAELAYDLFHLGFDVLIIDHRGQGRSGRLLADPHLGHVNRFNDYVDDLAAFWQQEVQPGPWRKRYILAHSMGGAISTLFLQRHPGVCDAIALTAPMFGIVIRMPSFMARQILNWAEAHPRFRDGYAIGTGRWRALPFAINVLTHSRQRYRRNLRFYADDPTIRVGGPTYHWVRESILAGEQVLAGAGDDATPTLLLQAEEERVVDNRMHDRFCELRTAAGHPVEGGRPLVIKGAYHEILFEKDAMRSVALHAIVDFFNRHNSPSGNRSTEV : 8.56

* * *

EXPERIMENT_DESCRIPTION: total protein half-life in vivo (active degradation + dilution); higher = more stable protein
PROTOCOL_CONDITIONS: wild type E. coli NCM3722; growth: C-lim chemostat; doubling time 12 h
OUTCOME_MEASURE: total protein half-life in vivo

SEQUENCE_CODE	MEASURED
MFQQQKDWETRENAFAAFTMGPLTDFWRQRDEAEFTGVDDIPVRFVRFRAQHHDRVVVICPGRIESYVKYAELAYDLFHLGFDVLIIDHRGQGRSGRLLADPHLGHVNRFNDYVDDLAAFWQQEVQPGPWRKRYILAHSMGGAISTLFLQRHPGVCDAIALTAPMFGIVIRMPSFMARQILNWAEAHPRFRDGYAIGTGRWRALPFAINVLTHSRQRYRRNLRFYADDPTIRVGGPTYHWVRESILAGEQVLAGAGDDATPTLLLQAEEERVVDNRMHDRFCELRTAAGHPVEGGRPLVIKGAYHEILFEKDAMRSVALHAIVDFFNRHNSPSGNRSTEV	11.3 h

Attention now turns to another entry.
total protein half-life in vivo reading for MSVIETATVPLAQQQADALLNVKDLRVTFSTPDGDVTAVNDLNFSLRAGETLGIVGESGSGKSQTAFALMGLLAANGRIGGSATFNGREILNLPEHELNKLRAEQISMIFQDPMTSLNPYMRVGEQLMEVLMLHKNMSKAEAFEESVRMLDAVKMPEARKRMKMYPHEFSGGMRQRVMIAMALLCRPKLLIADEPTTALDVTVQAQIMTLLNELKREFNTAIIMITHDLVVVAGICDKVLVMYAGRTMEYGNARDVFYQPVHPYSIGLLNAVPRLDAEGETMLTIPGNPPNLLRLPKGCPFQPRCPHAMEICSSAPPLEEFTPGRLRACFKPVEELL : 11.4 h

* * *

EXPERIMENT_DESCRIPTION: total protein half-life in vivo (active degradation + dilution); higher = more stable protein
PROTOCOL_CONDITIONS: wild type E. coli NCM3722; growth: C-lim chemostat; doubling time 3 h
// label = Y if total protein half-life in vivo is not less than 3 h, otherwise N

Consider the worked cases shown below.
SEQUENCE_CODE	CATEGORY_LABEL
MSLPHCPKCNSEYTYEDNGMYICPECAYEWNDAEPAQESDELIVKDANGNLLADGDSVTIIKDLKVKGSSSMLKIGTKVKNIRLVEGDHNIDCKIDGFGPMKLKSEFVKKN [P0AFJ1]	N
MKKIAITCALLSSLVASSVWADAASDLKSRLDKVSSFHASFTQKVTDGSGAAVQEGQGDLWVKRPNLFNWHMTQPDESILVSDGKTLWFYNPFVEQATATWLKDATGNTPFMLIARNQSSDWQQYNIKQNGDDFVLTPKASNGNLKQFTINVGRDGTIHQFSAVEQDDQRSSYQLKSQQNGAVDAAKFTFTPPQGVTVDDQRK	Y
MNKFEDIRGVAFDLDGTLVDSAPGLAAAVDMALYALELPVAGEERVITWIGNGADVLMERALTWARQERATQRKTMGKPPVDDDIPAEEQVRILRKLFDRYYGEVAEEGTFLFPHVADTLGALQAKGLPLGLVTNKPTPFVAPLLEALDIAKYFSVVIGGDDVQNKKPHPDPLLLVAERMGIAPQQMLFVGDSRNDIQAAKAAGCPSVGLTYGYNYGEAIDLSQPDVIYQSINDLLPALGLPHSENQESKND	Y
MTMKKLLIIILPVLLSGCSAFNQLVERMQTDTLEYQCDEKPLTVKLNNPRQEVSFVYDNQLLHLKQGISASGARYTDGIYVFWSKGDEATVYKRDRIVLNNCQLQNPQR	Y
MMNFNNVFRWHLPFLFLVLLTFRAAAADTLLILGDSLSAGYRMSASAAWPALLNDKWQSKTSVVNASISGDTSQQGLARLPALLKQHQPRWVLVELGGNDGLRGFQPQQTEQTLRQILQDVKAANAEPLLMQIRLPANYGRRYNEAFSAIYPKLAKEFDVPLLPFFMEEVYLKPQWMQDDGIHPNRDAQPFIADWMAKQLQPLVNHDS [P0ADA1]	Y

# bool: total protein half-life in vivo of MQASQFSAQVLDWYDKYGRKTLPWQIDKTPYKVWLSEVMLQQTQVATVIPYFERFMARFPTVTDLANAPLDEVLHLWTGLGYYARARNLHKAAQQVATLHGGKFPETFEEVAALPGVGRSTAGAILSLSLGKHFPILDGNVKRVLARCYAVSGWPGKKEVENKLWSLSEQVTPAVGVERFNQAMMDLGAMICTRSKPKCSLCPLQNGCIAAANNSWALYPGKKPKQTLPERTGYFLLLQHEDEVLLAQRPPSGLWGGLYCFPQFADEESLRQWLAQRQIAADNLTQLTAFRHTFSHFHLDIVPMWLPVSSFTGCMDEGNALWYNLAQPPSVGLAAPVERLLQQLRTGAPV >= 3 h
Y

# bool: total protein half-life in vivo of MPLSAQQLAAQKNLSYVLAEKLAQRILKGEYEPGTILPGEIELGEQFGVSRTAVREAVKTLTAKGMVLPRPRIGTRVMPQSNWNFLDQELLTWWMTEENFHQVIDHFLVMRICLEPQACLLAATVGTAEQKAHLNTLMAEMAALKENFRRERWIEVDMAWHEHIYEMSANPFLTSFASLFHSVYHTYFTSITSDTVIKLDLHQAIVDAIIQSDGDAAFKACQALLRSPDK >= 3 h
N

The reported numbers originate from the supplement of paper PMC11246515.
